# System Under Test: T1, His-tagged CEACAM1 (human, UniProt P13688 35-428)
# T1 construct: 45 kDa SPR analyte; also called CEACAM1-HIS; CEACAM1 analyte
# T1 sequence: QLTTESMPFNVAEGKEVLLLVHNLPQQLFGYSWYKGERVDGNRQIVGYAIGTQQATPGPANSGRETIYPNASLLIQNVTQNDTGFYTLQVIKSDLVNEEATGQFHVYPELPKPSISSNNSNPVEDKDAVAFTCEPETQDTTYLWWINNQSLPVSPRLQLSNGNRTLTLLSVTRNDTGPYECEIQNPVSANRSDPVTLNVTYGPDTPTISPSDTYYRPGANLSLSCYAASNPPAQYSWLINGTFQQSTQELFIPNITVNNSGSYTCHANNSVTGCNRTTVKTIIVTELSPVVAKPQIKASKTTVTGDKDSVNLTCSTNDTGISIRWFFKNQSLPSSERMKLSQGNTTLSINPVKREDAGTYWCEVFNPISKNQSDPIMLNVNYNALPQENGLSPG
# Protocol Details: SPR single-cycle, supernatant IgG captured
Reported Endpoint: koff (s⁻¹)
The response must be a number in s⁻¹ with no trailing unit.

{"Binder": "VH1/CP08E05 (antibody, IgG4, V domains shown, IgG4 (S241P), kappa; also called Parent VH/CP08E05) VH: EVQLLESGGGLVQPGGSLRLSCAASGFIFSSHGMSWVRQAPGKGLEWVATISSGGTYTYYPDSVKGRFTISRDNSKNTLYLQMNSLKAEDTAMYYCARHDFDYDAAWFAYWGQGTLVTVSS VL: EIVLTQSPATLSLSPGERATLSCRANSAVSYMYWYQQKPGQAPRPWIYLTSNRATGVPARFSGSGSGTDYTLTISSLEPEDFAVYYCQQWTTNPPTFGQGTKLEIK", "koff, s⁻¹": 0.034}
{"Binder": "VH1/CP08F05 (antibody, IgG4, V domains shown, IgG4 (S241P), kappa; also called Parent VH/CP08F05) VH: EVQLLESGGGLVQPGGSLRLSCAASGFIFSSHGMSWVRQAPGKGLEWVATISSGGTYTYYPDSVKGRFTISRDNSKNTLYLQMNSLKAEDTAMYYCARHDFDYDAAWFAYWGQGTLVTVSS VL: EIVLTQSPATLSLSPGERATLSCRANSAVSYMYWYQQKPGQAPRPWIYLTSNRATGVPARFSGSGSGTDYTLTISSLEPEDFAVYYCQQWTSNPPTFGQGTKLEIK", "koff, s⁻¹": 0.029}
{"Binder": "CP09B03/CP08F05 (antibody, IgG4, V domains shown, IgG4 (S241P), kappa) VH: EVQLLESGGGLVQPGGSLRLSCAASGFTFNAHAISWVRQAPGKGLEWVATISSGGTYTYYPDSVKGRFTISRDNSKNTLYLQMNSLKAEDTAMYYCARHDFDYDAAWFAYWGQGTLVTVSS VL: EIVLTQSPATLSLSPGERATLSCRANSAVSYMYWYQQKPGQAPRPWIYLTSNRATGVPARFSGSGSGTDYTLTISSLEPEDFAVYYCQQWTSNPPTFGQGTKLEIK", "koff, s⁻¹": 0.017}
{"Binder": "CP09C02/CP08E01 (antibody, IgG4, V domains shown, IgG4 (S241P), kappa) VH: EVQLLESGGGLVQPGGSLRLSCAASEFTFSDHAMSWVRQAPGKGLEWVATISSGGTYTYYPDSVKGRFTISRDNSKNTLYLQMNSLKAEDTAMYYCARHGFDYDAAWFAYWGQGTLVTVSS VL: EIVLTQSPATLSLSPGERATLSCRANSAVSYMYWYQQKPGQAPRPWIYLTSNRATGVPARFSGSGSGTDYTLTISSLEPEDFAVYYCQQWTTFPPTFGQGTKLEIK", "koff, s⁻¹": 0.02}

Now consider the entry below.
The reported value for CP09E05/CP08D02 (antibody, IgG4, V domains shown, IgG4 (S241P), kappa) VH: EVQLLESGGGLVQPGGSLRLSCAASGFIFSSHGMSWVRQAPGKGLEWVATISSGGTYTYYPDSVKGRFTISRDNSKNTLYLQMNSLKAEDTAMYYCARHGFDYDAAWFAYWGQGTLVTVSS VL: EIVLTQSPATLSLSPGERATLSCRANSAVSYMYWYQQKPGQAPRPWIYLTSNRATGVPARFSGSGSGTDYTLTISSLEPEDFAVYYCQQWTSFPPTFGQGTKLEIK in terms of koff is 0.074
